system: MOLT-4 leukemia; test: NCI-60 one-dose screen, 48 h (100 = growth as untreated, 0 = no growth, -100 = all killed); settings: 10 µM unless noted
About 83,000 compounds went through this panel and 20% of them were active in at least one assay; those are over-represented in the sample as a whole.
Entries whose growth is below 60% take fulfilled; entries at or above 60% take not fulfilled.

Given CC[C@H](CC[C@@H](C)[C@H]1CC[C@H]2[C@@H]3/C(=C/c4cccnc4)C(=O)C4=CC(=O)CC[C@]4(C)[C@H]3CC[C@]12C)C(C)C , is recorded growth strictly lower than 60%?
not fulfilled

# iterate: Nc1ccc(Br)cn1
not fulfilled

And what about the molecule CC1(C)C(=O)/C(=C\c2ccco2)C[C@]2(C)[C@H]3CC[C@@H]4[C@@H](C(=O)/C=C/c5ccco5)CC[C@@]4(C)[C@]3(C)CC[C@@H]12 ?
not fulfilled

Consider next the molecule Cn1c2c(Cl)c(Cl)ccc2c2c(C#N)c[nH]c(=O)c21 in the same way.
not fulfilled

Now try CCCCC(=O)OC1CCCCC1C (stereo not drawn) .
not fulfilled

Check NC1=NN(c2ccccc2)C(=O)/C1=C/c1ccc(Cl)cc1 too.
not fulfilled

###

system: DU-145 prostate; assay: NCI-60 one-dose screen, 48 h; details: 10 µM unless noted
Compounds without any hit were thinned out: in the full panel of roughly 83,000, 20% have a hit. Active and inactive are the calls of the source. How the source made its calls: active means growth percent below 10; inactive means the rest.
Output constraint: value belongs to 1 (yes) (active), 0 (no) (inactive)

Record excerpt, results attached:
molecule: O=c1[nH]ncc(Br)c1Br
cat: 0 (no)
--
molecule: O=c1c(CNc2ccc(S(=O)(=O)Nc3nccs3)cc2)coc2ccccc12
cat: 0 (no)
--
molecule: COc1ccc2c3c(c4ccccc4cc13)C(=O)N(CCN(C)CCN)C2=O
cat: 1 (yes)
--
molecule: COc1cccc2c1C(=O)c1c(O)c3c(c(O)c1C2=O)C[C@@](O)(C(=O)CO)C[C@@H]3OC1C[C@H](N)[C@H](O)[C@H](C)O1 (stereo partly drawn)
cat: 1 (yes)
--
molecule: Cn1cnc2c1c(=O)n(CCC(=O)Nc1ccc(F)cc1)c(=O)n2C
cat: 0 (no)
--
molecule: Nc1c(C(=O)Nc2cccc3ccccc23)sc2nc3c(cc12)CCCC3
cat: 0 (no)
--
molecule: COc1cccc(NC(=O)c2sc3nc4c(cc3c2N)C(=O)CCC4)c1
cat: 0 (no)
--
molecule: COc1cccc(-c2nn(-c3ccccc3)cc2-c2ccnc(NCCCNS(=O)(=O)c3ccc(Br)cc3)c2)c1
cat: 0 (no)

Which outcome did this test record for the molecule CC1(C)CC[C@]2(CO)CC[C@]3(C)C(=CC[C@@H]4[C@@]5(C)CC[C@H](NCO)C(C)(C)[C@@H]5CC[C@]43C)[C@@H]2C1 ?
1 (yes)

Now the molecule CN1CCN(c2ccc3nc(-c4[nH]ncc4Nc4ncnc5[nH]ccc45)[nH]c3c2)CC1
1 (yes)

And Cc1oc(-c2ccccc2Cl)cc1C(=O)Nc1ccc(S(N)(=O)=O)cc1 ?
0 (no)

One more molecule: COc1ccc2nc(-c3cc(-c4cc(OC)c(OC)c(OC)c4)n[nH]3)[nH]c2c1
0 (no)

# iterate: Nc1c(C(=O)Nc2cccc(Br)c2)sc2nc3c(cc12)C(=O)CCC3
1 (yes)

Would you mind doing COc1cnc2c(c1)C(=O)c1c-2n(CCCNC2=NCCS2)c(=O)c2cc([N+](=O)[O-])ccc12 as well?
1 (yes)

Cited source: PubChem BioAssay (NCI)
